- ASSAYED_SYSTEM: Protein cereblon/Poly [ADP-ribose] polymerase 1 (Homo sapiens, UniProt P09874+Q96SW2)
- TEST_DETAILS: PROTAC activity at CRBN/PARP1 in human HCT-116 cells assessed as degradation of PARP1
- Assay type: cell-based
- Sequence (P09874 whole entry): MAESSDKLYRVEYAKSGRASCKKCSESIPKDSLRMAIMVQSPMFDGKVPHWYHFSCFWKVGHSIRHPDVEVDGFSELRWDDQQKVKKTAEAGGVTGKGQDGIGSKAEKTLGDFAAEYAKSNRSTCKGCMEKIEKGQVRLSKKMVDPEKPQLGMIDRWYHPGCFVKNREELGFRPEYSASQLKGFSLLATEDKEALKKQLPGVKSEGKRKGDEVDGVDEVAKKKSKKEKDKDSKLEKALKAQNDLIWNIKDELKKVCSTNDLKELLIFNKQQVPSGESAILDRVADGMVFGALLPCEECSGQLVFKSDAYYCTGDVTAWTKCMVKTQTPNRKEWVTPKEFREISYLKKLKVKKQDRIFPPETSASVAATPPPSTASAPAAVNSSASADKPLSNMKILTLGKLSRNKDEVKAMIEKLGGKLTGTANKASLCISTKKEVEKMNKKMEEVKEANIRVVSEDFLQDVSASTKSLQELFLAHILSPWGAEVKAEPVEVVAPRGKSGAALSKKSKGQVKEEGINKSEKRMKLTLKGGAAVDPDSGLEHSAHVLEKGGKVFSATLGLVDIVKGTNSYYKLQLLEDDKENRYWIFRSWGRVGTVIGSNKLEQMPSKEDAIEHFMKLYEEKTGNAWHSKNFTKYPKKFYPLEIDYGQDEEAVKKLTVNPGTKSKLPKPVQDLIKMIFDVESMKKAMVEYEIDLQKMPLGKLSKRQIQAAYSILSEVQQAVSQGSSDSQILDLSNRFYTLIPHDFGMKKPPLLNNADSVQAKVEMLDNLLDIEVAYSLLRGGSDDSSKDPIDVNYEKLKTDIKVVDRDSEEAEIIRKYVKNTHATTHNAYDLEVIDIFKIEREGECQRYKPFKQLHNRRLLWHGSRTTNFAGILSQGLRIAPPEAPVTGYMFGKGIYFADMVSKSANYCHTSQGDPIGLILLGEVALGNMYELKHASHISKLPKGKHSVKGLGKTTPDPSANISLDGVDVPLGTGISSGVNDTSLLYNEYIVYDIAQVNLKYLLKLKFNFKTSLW
- Sequence (Q96SW2 whole entry): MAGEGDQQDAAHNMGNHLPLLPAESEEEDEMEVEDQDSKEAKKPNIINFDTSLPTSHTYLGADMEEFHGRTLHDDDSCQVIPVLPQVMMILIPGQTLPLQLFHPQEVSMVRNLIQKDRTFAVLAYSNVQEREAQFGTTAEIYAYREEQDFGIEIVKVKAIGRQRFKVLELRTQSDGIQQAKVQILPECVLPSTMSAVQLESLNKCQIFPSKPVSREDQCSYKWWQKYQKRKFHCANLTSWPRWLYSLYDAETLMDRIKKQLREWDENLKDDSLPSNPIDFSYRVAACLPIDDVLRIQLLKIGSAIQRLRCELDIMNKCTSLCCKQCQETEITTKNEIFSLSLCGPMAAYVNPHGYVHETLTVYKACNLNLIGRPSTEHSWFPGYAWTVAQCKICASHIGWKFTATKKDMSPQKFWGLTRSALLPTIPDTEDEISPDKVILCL
RESULT_TYPE: DC50 (µM)
Numeric only. Scale: µM

stdin: Sample NC(=O)c1cccc2cn(-c3ccc([C@@H]4CCCN(CCC5CCN(CCC6CCN(CC7CCN(c8ccc9c(c8)C(=O)N(C8CCC(=O)NC8=O)C9=O)CC7)CC6)CC5)C4)cc3)nc12 (stereo partly specified) — what was its DC50?
stdout: 0.03

stdin: Next record, please: NC(=O)c1cccc2cn(-c3ccc([C@@H]4CCCN(C(=O)CCCCCCCCNc5ccc6c(c5)C(=O)N(C5CCC(=O)NC5=O)C6=O)C4)cc3)nc12 (stereo partly specified)
stdout: 2.21

----------
- ASSAYED_SYSTEM: Protein cereblon/Poly [ADP-ribose] polymerase 1 (Homo sapiens, UniProt P09874+Q96SW2)
- TEST_DETAILS: PROTAC activity at CRBN/PARP1 in human HCT-116 cells assessed as maximum degradation of PARP1 relative to control
- Type: cell-based
- Sequence (P09874 2-1014 limits assumed): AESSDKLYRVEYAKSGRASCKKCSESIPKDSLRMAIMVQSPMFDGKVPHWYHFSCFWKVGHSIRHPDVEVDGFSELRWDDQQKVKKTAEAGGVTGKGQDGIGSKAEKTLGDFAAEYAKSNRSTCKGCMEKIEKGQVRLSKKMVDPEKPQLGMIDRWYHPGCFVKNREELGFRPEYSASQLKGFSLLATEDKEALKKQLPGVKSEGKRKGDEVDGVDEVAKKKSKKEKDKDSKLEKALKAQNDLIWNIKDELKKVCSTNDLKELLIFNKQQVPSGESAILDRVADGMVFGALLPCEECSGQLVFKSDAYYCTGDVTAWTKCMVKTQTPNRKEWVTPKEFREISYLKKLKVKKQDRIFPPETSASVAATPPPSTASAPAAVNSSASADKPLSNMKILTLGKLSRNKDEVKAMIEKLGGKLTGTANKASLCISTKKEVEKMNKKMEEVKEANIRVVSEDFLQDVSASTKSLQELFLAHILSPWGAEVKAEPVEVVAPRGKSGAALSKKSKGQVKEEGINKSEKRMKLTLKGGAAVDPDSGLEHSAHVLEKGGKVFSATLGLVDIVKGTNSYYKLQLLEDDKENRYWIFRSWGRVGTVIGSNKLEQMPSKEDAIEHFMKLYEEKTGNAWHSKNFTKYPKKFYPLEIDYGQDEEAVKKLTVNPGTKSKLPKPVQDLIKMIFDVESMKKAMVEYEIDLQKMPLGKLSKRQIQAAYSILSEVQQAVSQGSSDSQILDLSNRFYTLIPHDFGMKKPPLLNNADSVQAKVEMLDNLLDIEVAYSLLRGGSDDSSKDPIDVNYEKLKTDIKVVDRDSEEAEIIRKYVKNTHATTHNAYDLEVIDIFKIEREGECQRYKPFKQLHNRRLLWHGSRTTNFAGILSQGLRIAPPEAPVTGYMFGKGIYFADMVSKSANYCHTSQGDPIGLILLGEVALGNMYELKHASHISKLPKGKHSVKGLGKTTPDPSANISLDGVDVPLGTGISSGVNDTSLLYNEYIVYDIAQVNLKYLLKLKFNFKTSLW
- Sequence (Q96SW2 whole entry partner): as the sequence (Q96SW2 whole entry) above
Collected Emax values appear next to each entry.
Numeric only. Scale: %

Use these answered entries as a reference point.
stdin: Sample NC(=O)c1cccc2cn(-c3ccc([C@@H]4CCCN(C(=O)CC5CCN(CCC6CCN(CC7CN(c8ccc9c(c8)C(=O)N(C8CCC(=O)NC8=O)C9=O)C7)CC6)CC5)C4)cc3)nc12 (stereo not given in full) — what was its Emax?
stdout: 83.6

stdin: Next record, please: NC(=O)c1cccc2cn(-c3ccc([C@@H]4CCCN(C(=O)C5CCN(CC6CCN(c7ccc8c(c7)C(=O)N(C7CCC(=O)NC7=O)C8=O)CC6)CC5)C4)cc3)nc12 (stereo not given in full)
stdout: 30.2

stdin: Next record, please: NC(=O)c1cccc2cn(-c3ccc([C@@H]4CCCN(C(=O)CC5CCN(C(=O)C6CCN(c7ccc8c(c7)C(=O)N(C7CCC(=O)NC7=O)C8=O)CC6)CC5)C4)cc3)nc12 (stereo not given in full)
stdout: 35.6

stdin: Next record, please: NC(=O)c1cccc2cn(-c3ccc([C@@H]4CCCN(C(=O)CC5CCN(CC6CN(c7ccc8c(c7)C(=O)N(C7CCC(=O)NC7=O)C8=O)C6)CC5)C4)cc3)nc12 (stereo not given in full)
stdout: 31.8

Moving on to another compound below.
stdin: Sample NC(=O)c1cccc2cn(-c3ccc([C@@H]4CCCN(C(=O)COCCOCCOCCOCCNc5ccc6c(c5)C(=O)N(C5CCC(=O)NC5=O)C6=O)C4)cc3)nc12 (stereo not given in full) — what was its Emax?
stdout: 78.9

----------
Collected DC50 values appear next to each entry.
- ASSAYED_SYSTEM: Protein cereblon/Poly [ADP-ribose] polymerase 1 (Homo sapiens, UniProt P09874+Q96SW2)
- TEST_DETAILS: PROTAC activity at CRBN/PARP1 in human HCT-116 cells assessed as degradation of PARP1
- Assay type: cell-based

Use these answered entries as a reference point.
stdin: Sample NC(=O)c1cccc2cn(-c3ccc([C@@H]4CCCN(C(=O)COCCOCCOCCNc5ccc6c(c5)C(=O)N(C5CCC(=O)NC5=O)C6=O)C4)cc3)nc12 (some centres undefined) — what was its DC50?
stdout: > 20 µM

stdin: Next record, please: NC(=O)c1cccc2cn(-c3ccc([C@@H]4CCCN(C(=O)CCCCNc5ccc6c(c5)C(=O)N(C5CCC(=O)NC5=O)C6=O)C4)cc3)nc12 (some centres undefined)
stdout: > 20 µM

stdin: Next record, please: NC(=O)c1cccc2cn(-c3ccc([C@@H]4CCCN(C(=O)CC5CCN(C(=O)CC6CCN(CC7CCN(c8ccc9c(c8)C(=O)N(C8CCC(=O)NC8=O)C9=O)CC7)CC6)CC5)C4)cc3)nc12 (some centres undefined)
stdout: 0.23 µM

Continuing:
stdin: Sample NC(=O)c1cccc2cn(-c3ccc([C@@H]4CCCN(C(=O)CC5CCN(C(=O)C6CCN(c7ccc8c(c7)C(=O)N(C7CCC(=O)NC7=O)C8=O)CC6)CC5)C4)cc3)nc12 (some centres undefined) — what was its DC50?
stdout: > 20 µM

stdin: Next record, please: NC(=O)c1cccc2cn(-c3ccc([C@@H]4CCCN(C(=O)COCCOCCNc5ccc6c(c5)C(=O)N(C5CCC(=O)NC5=O)C6=O)C4)cc3)nc12 (some centres undefined)
stdout: > 20 µM

stdin: Next record, please: NC(=O)c1cccc2cn(-c3ccc([C@@H]4CCCN(C(=O)C5CCN(CC6CCN(c7ccc8c(c7)C(=O)N(C7CCC(=O)NC7=O)C8=O)CC6)CC5)C4)cc3)nc12 (some centres undefined)
stdout: > 20 µM

----------
- ASSAYED_SYSTEM: Protein cereblon/Poly [ADP-ribose] polymerase 1 (Homo sapiens, UniProt P09874+Q96SW2)
- TEST_DETAILS: PROTAC activity at CRBN/PARP1 in human HCT-116 cells assessed as degradation of PARP1
- Type: cell-based
RESULT_TYPE: DC50 (µM)
Numeric only. Scale: µM

stdin: Sample NC(=O)c1cccc2cn(-c3ccc([C@@H]4CCCN(C(=O)CC5CCN(C(=O)CC6CCN(CC7CCN(c8ccc9c(c8)C(=O)N(C8CCC(=O)NC8=O)C9=O)C7)CC6)CC5)C4)cc3)nc12 (stereo partly drawn) — what was its DC50?
stdout: 20.1

Moving on to another molecule below.
stdin: Sample NC(=O)c1cccc2cn(-c3ccc([C@@H]4CCCN(C(=O)CC5CCN(C(=O)CC6CCN(CC7CN(c8ccc9c(c8)C(=O)N(C8CCC(=O)NC8=O)C9=O)C7)CC6)CC5)C4)cc3)nc12 (stereo partly drawn) — what was its DC50?
stdout: 16.3
